Reference source for all entries: patent US20230399287A1

assay_explanation: Hepatocyte stability assay (mouse)
Assay type: in vitro ADME
measurement_conditions: mouse, cryopreserved hepatocytes, 10 μM compound, 60 min, read-out: T½
Reported half-life at 10 μM values are given for each entry in this list.
parameter_measured: half-life at 10 μM

INSERT INTO results (compound, parameter_measured, meas_value) VALUES
  ('C=C(CC(=O)OC1(c2ccc(C(F)(F)F)cn2)COC1)C(=O)O [Example 46]', 'half-life at 10 μM', '> 460 min'),
  ('C=C(C(=O)O)C1(C(=O)OC2(c3ccc(C(F)(F)F)cc3)CCC2)CC1 [Example 39]', 'half-life at 10 μM', '48 min'),
  ('C=C(CC(=O)OC1(c2ccc(SC(F)(F)F)cc2)CCC1)C(=O)O [Example 9]', 'half-life at 10 μM', '38 min'),
  ('C=C(CC(=O)OC1(c2ccc(C(F)(F)F)s2)CCC1)C(=O)O [Example 32]', 'half-life at 10 μM', '76 min');
